This section presents molecules with their documented IC50 values.
Target: MRGPRX2 (Homo sapiens, UniProt Q96LB1)
Sequence (Q96LB1 1-330): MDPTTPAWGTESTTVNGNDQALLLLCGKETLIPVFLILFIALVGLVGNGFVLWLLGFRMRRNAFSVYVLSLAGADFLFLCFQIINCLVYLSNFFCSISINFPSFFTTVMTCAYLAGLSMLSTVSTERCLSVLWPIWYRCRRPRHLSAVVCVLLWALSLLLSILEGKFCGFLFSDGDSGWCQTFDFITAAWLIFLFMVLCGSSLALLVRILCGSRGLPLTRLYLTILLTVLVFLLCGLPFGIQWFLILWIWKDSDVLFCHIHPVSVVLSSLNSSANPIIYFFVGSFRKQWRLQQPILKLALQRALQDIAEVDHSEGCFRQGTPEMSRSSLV
Assay: MRGPRX2 β-Arrestin Assay
Assay type: cell-based
Parameters: host or cells: PathHunter CHO-K1
Conditions: PathHunter CHO-K1 MRGPRX2 β-Arrestin cell line; agonist Cortistatin 14 0.25 μM

Previously resolved entries follow.
[
  {
    "Molecule": "CC(c1cc2ncc(Oc3ccc(F)cc3F)cc2cn1)N1CCC(F)(F)CC1 (centres unmarked) [Example 1]",
    "IC50": "100 to 1000 nM"
  },
  {
    "Molecule": "O=c1ccc(C2CN(C(c3cc4ncc(Nc5ccc(F)cc5F)cc4cn3)C(F)(F)F)CCC2(F)F)c[nH]1 (centres unmarked) [Example 26]",
    "IC50": "> 1000 nM"
  },
  {
    "Molecule": "Fc1ccc(Oc2cnc3cc(C(N4CC5CCC4C5)C(F)(F)F)ncc3c2)c(F)c1 (centres unmarked) [Example 11]",
    "IC50": "100 to 1000 nM"
  },
  {
    "Molecule": "CC(c1cc2ncc(Oc3ccc(F)cc3F)cc2cn1)N1CCC(F)(F)C(c2ccc(=O)[nH]c2)C1 (centres unmarked) [Example 4]",
    "IC50": "0.1 to 100 nM"
  }
]

Next molecule, IC50 to be filled in.
Just so you know, measured IC50 for Fc1ccc(Oc2cnc3cc(C(C(F)F)N4CCC(F)(F)CC4)ncc3c2)c(F)c1 (centres unmarked) [Example 22] came out at 0.1 to 100 nM
